Listing of entries alongside the reported FPDc (field-potential duration corrected by beat-rate), % change from baseline.
# Test system: hiPSC-CMs (iCell-Cardiomyocytes^2)
# condition.context: 10 µM; 96h
measured.property: FPDc (field-potential duration corrected by beat-rate), % change from baseline (%)

entry.smiles: CC(C)(Sc1cc(C(C)(C)C)c(O)c(C(C)(C)C)c1)Sc1cc(C(C)(C)C)c(O)c(C(C)(C)C)c1
endpoint.result: -2.5
//
entry.smiles: C#Cc1cccc(Nc2ncnc3cc(OCCOC)c(OCCOC)cc23)c1
endpoint.result: 16
//
entry.smiles: C[C@H](CS)C(=O)N1CCC[C@H]1C(=O)O
endpoint.result: 16
//
entry.smiles: CC1(C)S[C@@H]2[C@H](NC(=O)[C@H](N)c3ccc(O)cc3)C(=O)N2[C@H]1C(=O)O
endpoint.result: 10.4

* * *

Listing of entries alongside the reported Imp (impedance), % change from baseline.
# System: hiPSC-CMs (iCell-Cardiomyocytes^2)
# run.description: MEA impedance (cytotoxicity readout) in hiPSC-CMs
# condition.context: 3 µM; 2h
measured.property: Imp (impedance), % change from baseline (%)

molecule: CC(C)(Sc1cc(C(C)(C)C)c(O)c(C(C)(C)C)c1)Sc1cc(C(C)(C)C)c(O)c(C(C)(C)C)c1
system: hiPSC-CMs (iCell-Cardiomyocytes^2)
endpoint.result: -2
--
molecule: CC1(C)S[C@@H]2[C@H](NC(=O)[C@H](N)c3ccc(O)cc3)C(=O)N2[C@H]1C(=O)O
system: hiPSC-CMs (iCell-Cardiomyocytes^2)
endpoint.result: 2
--
molecule: COc1cccc2c1C(=O)c1c(O)c3c(c(O)c1C2=O)C[C@@](O)(C(=O)CO)C[C@@H]3O[C@H]1C[C@H](N)[C@H](O)[C@H](C)O1
system: hiPSC-CMs (iCell-Cardiomyocytes^2)
endpoint.result: -2
--
molecule: COc1cc2c(Nc3ccc(Br)cc3F)ncnc2cc1OCC1CCN(C)CC1
system: hiPSC-CMs (iCell-Cardiomyocytes^2)
endpoint.result: 2
--
molecule: COc1nc(N)nc2c1ncn2[C@@H]1O[C@H](COP(=O)(N[C@@H](C)C(=O)OCC(C)(C)C)Oc2cccc3ccccc23)[C@@H](O)[C@@]1(C)O (stereo partly shown)
system: hiPSC-CMs (iCell-Cardiomyocytes^2)
endpoint.result: 3
--
molecule: CC(=O)Oc1ccccc1C(=O)O
system: hiPSC-CMs (iCell-Cardiomyocytes^2)
endpoint.result: 5
--
molecule: C[C@H](CS)C(=O)N1CCC[C@H]1C(=O)O
system: hiPSC-CMs (iCell-Cardiomyocytes^2)
endpoint.result: 9
--
molecule: O=C(O)COCCN1CCN(C(c2ccccc2)c2ccc(Cl)cc2)CC1 (stereo not shown)
system: hiPSC-CMs (iCell-Cardiomyocytes^2)
endpoint.result: -3
--
molecule: N=C(N)c1ccc(OCCCCCOc2ccc(C(=N)N)cc2)cc1
system: hiPSC-CMs (iCell-Cardiomyocytes^2)
endpoint.result: 5
--
molecule: C#Cc1cccc(Nc2ncnc3cc(OCCOC)c(OCCOC)cc23)c1
system: hiPSC-CMs (iCell-Cardiomyocytes^2)
endpoint.result: 1

* * *

# Tested on: hiPSC-CMs (iCell-Cardiomyocytes^2)
# condition.context: 0.1 µM, 2h
Listing of entries alongside the reported EAD, number of observations/total well numbers.
measured.property: EAD, number of observations/total well numbers

entry.smiles: COc1cc2c(Nc3ccc(Br)cc3F)ncnc2cc1OCC1CCN(C)CC1
endpoint.result: 0/5
--
entry.smiles: COc1cccc2c1C(=O)c1c(O)c3c(c(O)c1C2=O)C[C@@](O)(C(=O)CO)C[C@@H]3O[C@H]1C[C@H](N)[C@H](O)[C@H](C)O1
endpoint.result: 0/5
--
entry.smiles: N=C(N)c1ccc(OCCCCCOc2ccc(C(=N)N)cc2)cc1
endpoint.result: 0/6
--
entry.smiles: Cc1cn(-c2cc(NC(=O)c3ccc(C)c(Nc4nccc(-c5cccnc5)n4)c3)cc(C(F)(F)F)c2)cn1
endpoint.result: 0/5
